Listed compounds paired with reported normalised viability
Test system: Hs578T
Assay: normalised viability (% of control), CellTiter-Blue; higher = more viable cells (about 100 = DMSO control)
Conditions: 1000 nM; incubation time: 72 h
Supply the numeric figure in %, leaving out any unit text.

Some compounds with known normalised viability results, for comparison:
CCc1cncnc1N1CCN(Cc2nc3ccc(C(F)(F)F)cc3[nH]2)CC1 122
Oc1ncc(N(CCCl)CCCl)c(O)n1 100
N#Cc1ccc(C(c2ccc(C#N)cc2)n2cncn2)cc1 91
O=C(O)C1(C(=O)O)CCC1.[NH2-].[NH2-].[Pt+2] 94.1

Now look at this one.
input: Record request: normalised viability value, item `C[C@H]1C[C@@H]2[C@H]([C@@H](O)C[C@@]3(C)[C@H]2CC[C@]3(O)C(=O)CO)[C@@]2(C)C=CC(=O)C=C12`
output: 116
